Assay: Cytotoxicity against mouse RAW264.7 cells assessed as cell viability at 30 uM after 18 hrs by MTT assay
Format: cell-based
Conditions: read-out: Activity
Endpoint label: viability at 18 h, 30 µM
Please state the value followed by its unit.

Input: State its viability at 18 h, 30 µM for this compound: CCCC(=O)c1c(O)c(C/C=C(\C)CCC=C(C)C)c(O)c2c([C@@H](O)CC)cc(=O)oc12 [KAYEASSAMIN A]
Output: 82.4%

Input: State its viability at 18 h, 30 µM for this compound: CC[C@H](OC(C)=O)c1cc(=O)oc2c(C(=O)CC(C)C)c(O)c(C/C=C(\C)CCC=C(C)C)c(O)c12 [MAMMEASIN B]
Output: 13.6%

Input: State its viability at 18 h, 30 µM for this compound: CCCC(=O)c1c(O)c(CC=C(C)C)c2oc(=O)cc(-c3ccccc3)c2c1O [MAMMEA A/AC]
Output: 96.8%

Input: State its viability at 18 h, 30 µM for this compound: CC[C@H](O)c1cc(=O)oc2c(CC=C(C)C)c(O)c(C(=O)CC(C)C)c(O)c12 [KAYEASSAMIN G]
Output: 83.7%

Input: State its viability at 18 h, 30 µM for this compound: CCC(C)C(=O)c1c(O)c(CC=C(C)C)c(O)c2c([C@H](CC)OC(C)=O)cc(=O)oc12 (some centres not stated)
Output: 11%

Input: State its viability at 18 h, 30 µM for this compound: CCC(C)C(=O)c1c(O)c(C/C=C(\C)CCC=C(C)C)c(O)c2c([C@H](CC)OC(C)=O)cc(=O)oc12 (some centres not stated) [SURANGIN B]
Output: 18.1%

Input: State its viability at 18 h, 30 µM for this compound: CCC(C)C(=O)c1c(O)c(C/C=C(\C)CCC=C(C)C)c(O)c2c([C@@H](O)CC)cc(=O)oc12 (some centres not stated) [SURANGIN C]
Output: 42.9%

###

Test: Cytotoxicity against mouse RAW264.7 cells assessed as cell viability at 30 uM after 18 hrs by MTT assay
Type: cell-based
Details: read-out: Activity
Label YES when viability at 18 h, 30 µM is strictly below 20%; at or above that, label NO.

Input: State whether 20% exceeds viability at 18 h, 30 µM recorded for CC[C@H](O)c1cc(=O)oc2c(C(=O)CC(C)C)c(O)c(C/C=C(\C)CCC=C(C)C)c(O)c12 .
Output: NO

Input: State whether 20% exceeds viability at 18 h, 30 µM recorded for O=C(/C=C/c1ccc(O)c(O)c1)OCCc1ccccc1 .
Output: YES

Input: State whether 20% exceeds viability at 18 h, 30 µM recorded for CCCC(=O)c1c(O)c2c(c3c([C@@H](O)CC)cc(=O)oc13)OC(C)(C)C=C2 .
Output: NO

Input: State whether 20% exceeds viability at 18 h, 30 µM recorded for CCCC(=O)c1c(O)c(C/C=C(\C)CCC=C(C)C)c(O)c2c([C@H](CC)OC(C)=O)cc(=O)oc12 .
Output: YES

Input: State whether 20% exceeds viability at 18 h, 30 µM recorded for CC(C)=CCc1c(O)c(C(=O)C(C)C)c(O)c2c(-c3ccccc3)cc(=O)oc12 .
Output: YES

Input: State whether 20% exceeds viability at 18 h, 30 µM recorded for CCCC(=O)c1c(O)c(CC=C(C)C)c2oc(=O)cc([C@@H](O)CC)c2c1O .
Output: NO

Input: State whether 20% exceeds viability at 18 h, 30 µM recorded for Oc1ccc(-c2nc(-c3ccncc3)c(-c3ccc(F)cc3)[nH]2)cc1 .
Output: NO

Input: State whether 20% exceeds viability at 18 h, 30 µM recorded for CCC(C)C(=O)c1c(O)c(CC=C(C)C)c2oc(=O)cc([C@@H](O)CC)c2c1O (stereo partly drawn) .
Output: NO

Data origin, for the record: ChEMBL document CHEMBL2062365
